Test system: HeLa cells
Test: Compound screen by flow cytometry: HeLa cell count as surrogate readout of cell viability (z-scoreHeLa); note: test concentration or dose not given here
Assay type: cell-based, human
Details: PKIS compounds raw data; replicate 1; HeLa cell count
The entries below come with measured cell count rep 1 values attached.
Please give only the number in your answer, with no unit.

Some compounds with recorded cell count rep 1:
> print(dat)
                                   compound  result.value
1  [O-][S+]1CCN(Cc2ccc(-c3ccc4ncnc(Nc5ccc(OCc6ccccc6)c(F)c5)c4c3)o2)CC1 [GW576924A]          3467
2  O=S(=O)(c1cccc(F)c1)c1ccc(Nc2ncnc3cc(Br)sc23)cc1Cl [GSK306886A]          2697
3  CS(=O)(=O)CCNCc1nc(-c2ccc3ncnc(Nc4ccc(OCc5cccc(F)c5)c(Cl)c4)c3c2)cs1 [GW583340C]          5969
4  Clc1ccc(CNc2nccc(-c3cnn4ncccc34)n2)cc1 [GW781673X]          3767
5  COc1ccc2[nH]c3c4[nH]c5ccc(OC)cc5c4c4c(c3c2c1)C(=O)NC4=O [GW296115X]          4446

Req: Record request: cell count rep 1 value, item COc1cc(C=NNc2ncnc3c2cnn3-c2ccccc2)ccc1O [GW513184X]
Resp: 3697

Req: Record request: cell count rep 1 value, item O=C(Nc1n[nH]c2cc(-c3ccccc3)ccc12)C1CC1
Resp: 4945

Req: Record request: cell count rep 1 value, item COc1cccc(-n2ncc3c(N/N=C/c4ccncc4)ncnc32)c1 [GW784752X]
Resp: 3928

Req: Record request: cell count rep 1 value, item NS(=O)(=O)c1ccc(N/C=C2\C(=O)Nc3ccc4ncsc4c32)cc1 [GW297361X]
Resp: 2950

Req: Record request: cell count rep 1 value, item c1ccc(Oc2ccc(Nc3ccnc4cc(-c5ccc(CNCCN6CCOCC6)o5)ccc34)cc2)nc1 [GW567145X]
Resp: 6078

Req: Record request: cell count rep 1 value, item COc1cc(/C=N/Nc2ncnc3[nH]ncc23)ccc1O [GW578748X]
Resp: 4206

Req: Record request: cell count rep 1 value, item Cc1n[nH]c2cc(Nc3ccnc(Nc4cccc(CN5CCOCC5)c4)n3)ccc12 [GW682569X]
Resp: 2071

Req: Record request: cell count rep 1 value, item CCCNC(=O)Nc1ccc(N(C)c2ccnc(NC3CC3)n2)cc1 [GW818933X]
Resp: 6971
